Cited source: the supplement of paper PMC9170038

Tested on: MS2 coat protein
methodDescription: apparent KD of MS2 coat protein; higher = weaker reporter binding
setupConditions: Eterna round: R107; input ligand: none

monomerSequence	apparent KD of MS2 coat protein, nM
UAGCGAUAAUCUGAUACCAGACGUGUGCUCUCCUCAGACAUGAGGAUCACCCAUGUAUGCGUCCCUUGGCAGCAGAGUGAGGAGA [Theo B Ex t5]	19.6
CCCAGUUAUAACAAAGGAAUAAUACUCGAAGGAGCGUCAUAGUAGGCAGGUAGGUCGCGAGACAUGAGGAUCACCCAUGUAGAGA [qvvmullin]	46
UGUAUGUGAUCUGAUACCAGCUAGCGGAAACGCAAGCUUGAGGAUCACCCAAGUGGAAUAAGCCCUUGGCAGCAGAUCGCAUACU [Denovo 5 #StaticStem #AlternativeMS2]	266
CCUCGGGACCGAAGGAGCGAGAUAACAACAUUGGGUCUCAACACAUGAGGAUCACCCAUGUCUCAGGUAGGUCGCGGUACCAUGG [Exclusion Arginine B GF22]	385
UUCAGCUAGUCGGCCGCCACUACACGAGGAUCACCCGUGUUCCUAAAACACUGCUUCGGCAGUGGUAGGACCGGGACUAGCUGAG	27.9
AACAUGAGGAUCACCCAUGUCUGAACUGAAGGAGCGCUAAAUAAGGCAGGUAGGUCGCGGAAUUUUGUGUAUAUAUAUAUAUGGG [9.G]	27.1

###

Known apparent KD of MS2 coat protein of a selection of sequences
Test system: MS2 coat protein
methodDescription: apparent KD of MS2 coat protein; designed switch direction (-1 OFF switch, 1 ON switch): 1; higher = weaker reporter binding
setupConditions: Eterna round: R95; input ligand: none
endpoint: apparent KD of MS2 coat protein

monomerSequence	measuredTarget	recordedResult
UAAACUUCUUUUAGUGUAAUGCAAGUGAUACAUGAGGAUCACCCAUGUUUUGGAUCGUGUUAUUUUGUUCGUCUUAA [JR_SHM208A_Sub077] (puzzle: Sensor for hsa-mir-208a)	MS2 coat protein	42.9 nM
AGUUGUGGAAAACUAUAGCAAAAGCAUGUACAUGAGGAUCACCCAUGUCAUGUACAAGCUUUUUGCUCGUCUUAUGG [ak 3 mod of one Eli's designs.] (puzzle: Sensor for hsa-mir-208a)	MS2 coat protein	50.3 nM
UAGAGAGGAAGCGAGGAUAUCGUGUUAGGUACAUGAGGAUCACCCAUGUUUUAGGUAGAGGUAGGCGAGAAGGCGCAGGAGAGGA [JR_SS2_Sub091] (puzzle: Same State 2)	MS2 coat protein	24.4 nM
UCUUGGUUUUUGCUCGUUUUUUGUGUUGAACAUGAGGAUCACCCAUGUAUUGUACGGUCCGGUUUAGUAGUGGUCCG [JMF 17] (puzzle: Sensor for hsa-mir-208a)	MS2 coat protein	30.4 nM
GUGGCCCAGGCACAGGAUAUGUUUCUCGUAACAUGAGGAUCACCCAUGUGCCUAUGAGAUUGUUUGCAGAAGGGUGCACGCCACG [JL Atiinbe mod 03] (puzzle: Same State 2)	MS2 coat protein	541 nM

###

Tested on: MS2 coat protein
methodDescription: apparent KD of MS2 coat protein; designed switch direction (-1 OFF switch, 1 ON switch): -1; higher = weaker reporter binding
setupConditions: input ligand: FMN 200 uM

monomerSequence	apparent KD of MS2 coat protein, nM
UUCGUUUUAGGAUAUACAGGGUUGGUCGACAACUCACUGUCACAUGAGGAUCACCCAUGUAGAAGGGAGAGAAG [Eternabot (L1) Solution 49] (Eterna round: R97, puzzle: Exclusion 2)	244
UUGUUGUGUGUAGGAUAUGCGUAUUAUUAUUAUGCAGAAGGACAUGAGGAUCACCCAUGUGUAUUAUUAUUAUAUAUUAUAUAU [Title] (Eterna round: R96, puzzle: Exclusion NG 1)	43.3
UUCACGUCAGGAUAUCCAUAUUUCUGAUAUAACGGUACUUUGGAGAAGGGACAUGAGGAUCACCCAUGUCCUCU [LRO-Excl4-19-Nando 22 Mod] (Eterna round: R97, puzzle: Exclusion 4)	15.5
